Target: human cloned dopamine D4.2 receptors (Homo sapiens, UniProt P21917, DEL265-296)
Assay: Inhibition of the binding of 3H-YM-09151-2 to human dopamine D4 receptors
Settings: human cloned dopamine D4.2 receptors in CHO-cells
One threshold, 3 nM, splits the recorded IC50 values: lower ones are Fulfilled, equal or higher ones are Not fulfilled.

Input Clc1ccc(SCCN2CCN(c3cccc4c3OCCO4)CC2)cc1Cl [Compound 3a] ; condition: IC50 strictly below 3 nM. Does it hold? Not fulfilled

====

Molecular target: human cloned dopamine D4.2 receptors (Homo sapiens, UniProt P21917, DEL265-296)
Sequence (P21917 with tags, fused parts or gaps DEL265-296): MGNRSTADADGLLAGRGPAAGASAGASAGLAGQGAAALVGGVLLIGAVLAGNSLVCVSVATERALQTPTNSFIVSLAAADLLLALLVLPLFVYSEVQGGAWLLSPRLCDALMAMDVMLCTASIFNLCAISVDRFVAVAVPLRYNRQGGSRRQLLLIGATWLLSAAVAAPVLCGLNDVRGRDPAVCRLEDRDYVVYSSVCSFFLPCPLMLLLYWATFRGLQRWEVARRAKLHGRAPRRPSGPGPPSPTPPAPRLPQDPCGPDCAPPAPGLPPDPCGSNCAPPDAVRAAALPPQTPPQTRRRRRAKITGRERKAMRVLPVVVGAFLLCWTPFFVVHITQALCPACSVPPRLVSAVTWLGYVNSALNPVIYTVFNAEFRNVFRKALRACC
Assay: Inhibition of the binding of 3H-YM-09151-2 to human dopamine D4 receptors
Details: human cloned dopamine D4.2 receptors in CHO-cells
One threshold, 7 nM, splits the recorded IC50 values: lower ones are label 1, equal or higher ones are label 0.

Example entries and their recorded answers appear below.
Fc1ccc(SCCCN2CCN(c3cccc4c3OCCO4)CC2)c(Cl)c1 [Compound 5ac] | label 1
CS(=O)(=O)c1cc(Cl)c(OCCCN2CCN(c3cccc4ccsc34)CC2)c(Cl)c1 [Compound 5ao] | label 0
Cc1cc(F)ccc1OCCCN1CCN(c2cccc3c2OCCO3)CC1 [Compound 1e] | label 1
Fc1ccc(OCCCN2CCN(c3cccc4c3OCCO4)CC2)c(Br)c1 [Compound 5aa] | label 1
Fc1ccc(SCCCN2CCN(c3cccc4ccsc34)CC2)c(Cl)c1 [Compound 5ad] | label 1
Clc1ccccc1SCCCN1CCN(c2cccc3c2OCCO3)CC1 [Compound 5cd] | label 1
Fc1cc(Br)c(OCCCCN2CCN(c3cccc4c3OCCO4)CC2)c(Br)c1 [Compound 5by] | label 1
Fc1cc(Cl)c(OCCCN2CCN(c3cccc4ccsc34)CC2)c(Cl)c1 [Compound 5au] | label 0

Let's switch to this molecule now.
Input N#Cc1ccc(N2CCN(CCCOc3ccccc3Cl)CC2)c2c1OCCO2 [Compound 6c] ; condition: IC50 strictly below 7 nM. Does it hold? label 0

====

Molecular target: human cloned dopamine D4.2 receptors (Homo sapiens, UniProt P21917, DEL265-296)
Assay: Inhibition of the binding of 3H-YM-09151-2 to human dopamine D4 receptors
Details: human cloned dopamine D4.2 receptors in CHO-cells
quantity_name: IC50 (nM)
Write the value in nM as a bare number.

Cc1cccc(Cl)c1SCCCCN1CCN(c2cc(Cl)cc3c2OCC3(C)C)CC1 | 12

Record lookup: for human cloned dopamine D4.2 receptors (Homo sapiens, UniProt P21917, DEL265-296), what IC50 belongs to Fc1ccc(OCCCCN2CCN(c3cccc4ccsc34)CC2)c(Br)c1 ? 3.1

Same for Fc1cc(Br)cc(F)c1OCCCCN1CCN(c2cccc3c2OCCO3)CC1 10

Same for N#Cc1ccc(N2CCN(CCCOc3ccc(F)cc3Br)CC2)c2c1OCCO2 10

Same for CC1(C)Cc2cc(Cl)cc(N3CCN(CCCSc4c(Cl)cccc4Cl)CC3)c2O1 9.9
